- Subject of test: T1, His-tagged human CD38 (ACRO Biosystems cat #CD8-H5224) (human, UniProt P28907 43-300)
- T1 construct: bought recombinant protein with His tag
- Test method notes: SPR, captured scFv-Fc, His-CD38 analyte;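 note: SPR on a Carterra LSA, scFv-Fc captured by anti-human Fc on HC30M chip, His-tagged CD38 (human, mouse, cynomolgus) flowed as analyte in eight 1:2 steps from 400 nM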
pKd: −log10 of the molar value.

# Binder, pKd
measured = [
    ("40566p1.B3 (scFv, V domains shown, tested as scFv-Fc supernatant) VH: DVQLVESGGGVVRPGESLRLSCAASGFTFDNYDMTWVRQAPGEGLEWVSFISSRGTFTYYTDSVRGRFTISRDNSKNTLYLEMNSLRAEDTAIYYCAKDSGEYYFFDYWGLGTLVTVSS VL: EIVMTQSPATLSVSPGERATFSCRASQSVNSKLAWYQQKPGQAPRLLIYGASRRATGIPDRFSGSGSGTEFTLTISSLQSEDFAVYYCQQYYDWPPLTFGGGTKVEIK", 4.36),
    ("40566p1.D2 (scFv, V domains shown, tested as scFv-Fc supernatant) VH: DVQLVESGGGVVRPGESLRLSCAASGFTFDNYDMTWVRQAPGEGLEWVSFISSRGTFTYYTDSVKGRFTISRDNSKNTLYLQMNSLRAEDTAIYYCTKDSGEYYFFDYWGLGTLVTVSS VL: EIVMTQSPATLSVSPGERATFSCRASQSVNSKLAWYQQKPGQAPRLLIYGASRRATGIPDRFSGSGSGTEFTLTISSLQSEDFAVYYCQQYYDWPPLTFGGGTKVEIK", 7.93),
]
